Data origin: patent US20050009748A1

# measurement.description: Liquid oral delivery of PYY[3-36] in rats (oral gavage, serum PYY[3-36] radioimmunoassay)
# Format: in vivo, Male Sprague-Dawley rats
# condition: oral gavage solution, Delivery Agent 200 mg/kg, PYY[3-36] 0.3 mg/kg, 1 ml/kg
Binary label based on Mean Peak Serum [PYY(3-36)] (pg/ml) ± SD with cut-off 800 pg/mL: below gives t, not below gives f.

Qu. Is it true that Mean Peak Serum [PYY(3-36)] (pg/ml) ± SD reported for Cc1ccc(O)c(C(=O)NCCCCCCCC(=O)O)c1 is less than 800 pg/mL?
Ans. t

Qu. Is it true that Mean Peak Serum [PYY(3-36)] (pg/ml) ± SD reported for O=C(O)CCCCCCCNC(=O)c1cc(I)ccc1O is less than 800 pg/mL?
Ans. t

Qu. Is it true that Mean Peak Serum [PYY(3-36)] (pg/ml) ± SD reported for O=C(O)CCCCCCCOc1ccc(O)cc1 [Delivery Agent 13, 8-(4-hydroxyphenoxy)octanoic acid] is less than 800 pg/mL?
Ans. f

Qu. Is it true that Mean Peak Serum [PYY(3-36)] (pg/ml) ± SD reported for O=C(O)CCCCCCCNC(=O)c1cc(Cl)ccc1O is less than 800 pg/mL?
Ans. t

Qu. Is it true that Mean Peak Serum [PYY(3-36)] (pg/ml) ± SD reported for COc1ccc(C(=O)NCCCCCCCC(=O)O)c(O)c1 is less than 800 pg/mL?
Ans. f

Qu. Is it true that Mean Peak Serum [PYY(3-36)] (pg/ml) ± SD reported for O=C(O)CCCCCCCNC(=O)c1cc(F)ccc1O is less than 800 pg/mL?
Ans. f
